experiment: chemical genetic growth profiling, strain panel (AID 1159580);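 also: tested at 20 µM; growth read once vehicle control cultures reached saturation at 30 °C; 1 = growth at the plate median or of vehicle wells; lower values mean less growth of the strain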; conditions: S. cerevisiae deletion strains, growth OD, locus YGL240W, strain doc1
Out of some 5,500 compounds screened, about 2,000 (36%) were called active. Inconclusive results (about 18%) are left out. Rule as the data show it: active = normalized growth mostly below about 0.91 (no sharp cut-off); inconclusive = no clear call, values can overlap the other calls; inactive = mostly above about 0.92. Some of the results follow.
Permitted responses: active, inactive

For orientation, consider the following solved cases.
COc1ccc(C(=O)c2ccccc2)c(O)c1O
inactive
NC(=O)NO
inactive

Query: Per the records of this test, what outcome belongs to CCOc1ccc(C(=O)c2ccc(OC)c(O)c2O)cc1 ?
Result: inactive

Query: Try CC1=C(O)C(=O)C=C2C1=CC=C1[C@@]2(C)CC[C@@]2(C)[C@@H]3C[C@](C)(C(=O)O)CC[C@]3(C)CC[C@]12C next.
Result: active

Query: Try CCOc1ccc(C(=O)c2cc(O)c(OC)c(OC)c2O)cc1 next.
Result: inactive

Query: Try CN1CCN(CCCN2c3ccccc3Sc3ccc(C(F)(F)F)cc32)CC1 next.
Result: active

====

experiment: chemical genetic growth profiling, strain panel (AID 1159580); settings: S. cerevisiae deletion strains, growth OD, locus YOR184W, strain ser1, active compounds read low
The whole screen tested about 5,500 compounds, of which about 2,000 (36%) were called active. Another 18% or so got no clear call; they are omitted. The list shows a part of the results.
Could you mark each record Criterion met if its normalized growth falls strictly under 1, and Criterion not met if it equals or exceeds it?

For orientation, consider the following solved cases.
CC1(C)S[C@@H]2[C@H](NC(=O)Cc3ccccc3)C(=O)N2[C@H]1C(=O)O
Criterion not met
COc1cc(/C=C/C=O)cc(OC)c1OC
Criterion not met
O=C(O)c1cc([N+](=O)[O-])ccc1NCCCc1ccccc1
Criterion met
CN[C@@H]1[C@@H](O[C@H]2O[C@H](CO)[C@@H](N)[C@H](O)[C@H]2O)O[C@H]2C[C@@H](N)[C@H](O[C@H]3[C@H](O)[C@@H](O)[C@H](N)C[C@@H]3N)O[C@@H]2[C@@H]1O
Criterion not met
CC[C@@H](CO)NC(=O)[C@@H]1C=C2c3cccc4[nH]cc(c34)C[C@H]2N(C)C1
Criterion met
CC1=C(O)C(=O)C=C2C1=CC=C1[C@@]2(C)CC[C@@]2(C)[C@@H]3C[C@](C)(C(=O)O)CC[C@]3(C)CC[C@]12C
Criterion met
COC(=O)[C@]1(C)CC[C@]2(C)CC[C@]3(C)C4=CC=C5C(=CC(=O)C(O)=C5C)[C@]4(C)CC[C@@]3(C)[C@@H]2C1
Criterion met

Alright, here's another molecule for you.
Query: Lab note: confirm whether the reported normalized growth for this molecule is below 1, equality not counting. molecule: C1CCC(C(CC2CCCCN2)C2CCCCC2)CC1 (configuration not stated)
Result: Criterion met

====

assay: chemical genetic growth profiling, strain panel (AID 1159580); settings: S. cerevisiae deletion strains, growth OD, locus YPL055C, strain LGE1, active compounds read low
The campaign covered roughly 5,500 compounds. About 2,000 (36%) were called active. Another 18% or so got no clear call; they are omitted. The list shows a part of the results.
# normalized growth annotations
Just the number, please, no unit after it.

Here are 4 molecules together with their reported answers.
O=C1CCCN1c1ccc(Cl)c(Cl)c1
0.889
O=C(Nc1cccnc1)c1cccc(Cl)c1Cl
1.02
CN(C(=O)Nc1ccccc1)n1cnc2ccccc2c1=O
1.05
CC(=O)Oc1cccc2c1C(=O)c1c(OC(C)=O)cc(C(=O)O)cc1C2=O
1.01

Query: Bench note: what normalized growth did NC[C@H]1O[C@H](O[C@H]2C(O[C@@H]3O[C@H](CO)[C@@H](O)[C@H]3O)[C@@H](O)[C@H](N)C[C@@H]2N)[C@H](N)[C@@H](O)[C@@H]1O (stereo not given in full) show?
Result: 1.04

====

experiment: chemical genetic growth profiling, strain panel (AID 1159580); conditions: S. cerevisiae deletion strains, growth OD, locus YOR144C, strain elg1
Among all 5,500 compounds or so, about 2,000 (36%) were called active. Inconclusive results (about 18%) are left out. Cut-off read from the data, not from the text of the source: active = normalized growth mostly below about 0.91 (no sharp cut-off); inconclusive = no clear call, values can overlap the other calls; inactive = mostly above about 0.92. This is one part of the list.
Permitted responses: active, inactive

C#C[C@]1(O)CCC2C3CCC4=Cc5oncc5C[C@]4(C)C3CC[C@@]21C (stereo partly drawn)
active
C#CC1(O)CCC2C3CCC4=CC(=O)CCC4(C)C3CCC21C (stereo not drawn)
inactive

Alright, here's another compound for you.
Query: Per the records of this test, what outcome belongs to COc1c2c(cc3c1OCO3)C13C=C[C@H](OC)CC1N(C2)CC3O (stereo partly drawn) ?
Result: inactive

====

assay: chemical genetic growth profiling, strain panel (AID 1159580); conditions: S. cerevisiae deletion strains, growth OD, locus YLR133W, strain CKI1
Screen size: about 5,500 compounds; about 2,000 (36%) were called active. Inconclusive results (about 18%) are left out. Cut-off read from the data, not from the text of the source: active = normalized growth mostly below about 0.91 (no sharp cut-off); inconclusive = no clear call, values can overlap the other calls; inactive = mostly above about 0.92. Some of the results follow.
Permitted responses: true (active), false (inactive)

OC(CSc1ccccc1)CN1CCN(c2nc(-c3ccccc3)ns2)CC1 (stereo unspecified)
false

Query: Per the records of this test, what outcome belongs to CN1c2ccccc2C(C)(C)C12C=Cc1cc(O)ccc1O2 (stereo unspecified) ?
Result: false

Query: Try S=C(N/N=C\c1cccs1)NC1CC2CCC1C2 (stereo unspecified) next.
Result: false

Query: Try CC(C)(C)c1ccc(C(=O)NNC(=S)Nc2ccc(Cl)cc2)cc1 next.
Result: false

Query: Try N#C/C(=N/Nc1cccc(C(F)(F)F)c1)C(=O)c1csc(-c2cccnc2)n1 next.
Result: true

Query: Try O=c1c(-c2ccccc2)c(O)c2cccc3c4c(n1c23)CCCC4 next.
Result: true

Query: Try Cc1ccc2nc(-c3ccc([N+](=O)[O-])o3)oc(=O)c2c1 next.
Result: true

Query: Try O=C(Nc1cc2c(s1)-c1cc(Cl)ccc1SC2)Oc1ccccc1 next.
Result: false

Query: Try Cn1nc(-c2ccccc2)c(O)c(N=Nc2ccccc2)c1=O next.
Result: false

Query: Try Cc1ccc(OCc2n[nH]c(=S)n2Cc2ccccc2)c2c1CCC2 next.
Result: false

Query: Try COc1ccc(C2CC(c3ccc(C)cc3C)=NN2C(C)=O)cc1 (stereo unspecified) next.
Result: false

====

experiment: chemical genetic growth profiling, strain panel (AID 1159580); conditions: S. cerevisiae deletion strains, growth OD, locus YGL240W, strain doc1
Among all 5,500 compounds or so, about 2,000 (36%) were called active. Another 18% or so got no clear call; they are omitted. Rule as the data show it: active = normalized growth mostly below about 0.91 (no sharp cut-off); inconclusive = no clear call, values can overlap the other calls; inactive = mostly above about 0.92. The list shows a part of the results.
Permitted responses: 1.0 (active), 0.0 (inactive)

O=c1c(O)c(-c2ccc(O)c(O)c2)oc2cc(O)ccc12
0.0
CC(=O)N[C@@H](Cc1c[nH]c2ccccc12)C(=O)O
0.0
c1ccc2c(Cc3c[nH]c4ccccc34)c[nH]c2c1
1.0

Alright, here's another molecule for you.
Query: Per the records of this test, what outcome belongs to CCOc1cccc(C(=O)c2ccc(O)c(O)c2O)c1 ?
Result: 0.0

====

experiment: chemical genetic growth profiling, strain panel (AID 1159580);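 also: tested at 20 µM; growth read once vehicle control cultures reached saturation at 30 °C; 1 = growth at the plate median or of vehicle wells; lower values mean less growth of the strain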; conditions: S. cerevisiae deletion strains, growth OD, locus YHR129C, strain ARP1, active compounds read low
The whole screen tested about 5,500 compounds, of which about 2,000 (36%) were called active. Inconclusive results (about 18%) are left out. This is one part of the list.
# normalized growth annotations
Just the number, please, no unit after it.

Query: Bench note: what normalized growth did COc1cc(O)cc(OC)c1OC show?
Result: 1.02

Query: Try Cc1ccc(N(CC2=NCCN2)c2cccc(O)c2)cc1 next.
Result: 0.984

====

assay: chemical genetic growth profiling, strain panel (AID 1159580);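 also: tested at 20 µM; growth read once vehicle control cultures reached saturation at 30 °C; 1 = growth at the plate median or of vehicle wells; lower values mean less growth of the strain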; settings: S. cerevisiae deletion strains, growth OD, locus YEL037C, strain rad23, active compounds read low
In all, about 5,500 compounds went through this assay and about 2,000 (36%) were called active. Not shown: some 18% with an inconclusive outcome. Some of the results follow.
# normalized growth annotations
Just the number, please, no unit after it.

Here are 3 compounds together with their reported answers.
COC(=O)[C@]1(C)CC[C@]2(C)CC[C@]3(C)C4=CC=C5C(=CC(=O)C(O)=C5C)[C@]4(C)CC[C@@]3(C)[C@@H]2C1
0.814
CC(=O)Oc1cc2c(c(C)c1OC(C)=O)CC1OC13C2(C)CCC1(C)C2CC(C)(C(=O)O)CCC2(C)CCC13C (centres undefined)
1.01
COc1cc2c(cc1O)CCNC2C (centres undefined)
1

Query: Bench note: what normalized growth did CC1=C(O)C(=O)C=C2C1=CC=C1[C@@]2(C)CC[C@@]2(C)[C@@H]3C[C@](C)(C(=O)O)CC[C@]3(C)CC[C@]12C show?
Result: 0.769

====

test: chemical genetic growth profiling, strain panel (AID 1159580);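 also: tested at 20 µM; growth read once vehicle control cultures reached saturation at 30 °C; 1 = growth at the plate median or of vehicle wells; lower values mean less growth of the strain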; conditions: S. cerevisiae deletion strains, growth OD, locus YKL067W, strain YNK1
About 2,000 (36%) of roughly 5,500 compounds were called active. About 18% were inconclusive and are not listed. Cut-off read from the data, not from the text of the source: active = normalized growth mostly below about 0.91 (no sharp cut-off); inconclusive = no clear call, values can overlap the other calls; inactive = mostly above about 0.92. The list shows a part of the results.
Permitted responses: active, inactive

O=c1c(-c2ccccc2)c(O)c2cccc3c4c(n1c23)CCCC4
active
COc1ccc(C2CC(c3ccc(C)cc3C)=NN2C(C)=O)cc1 (configuration not stated)
inactive
CCOC(=O)c1cnc2c(c(C)nn2C)c1Sc1nnc(SC)s1
inactive

Query: Per the records of this test, what outcome belongs to CC(=O)c1ccccc1C(=O)c1ccc(C(C)(C)C)cc1 ?
Result: inactive

Query: Try CS/C(Nc1cccc(C(F)(F)F)c1)=C(/C#N)S(=O)(=O)c1ccc(Cl)cc1 next.
Result: inactive

Query: Try Cc1ccc(OCc2n[nH]c(=S)n2Cc2ccccc2)c2c1CCC2 next.
Result: inactive

Query: Try C/C(=N/NC(=O)c1ccc(C(C)(C)C)cc1)c1ccccc1O next.
Result: inactive

Query: Try O=c1c(-c2ccccc2)c(O)c2cccc3c4ccccc4n1c23 next.
Result: active
